Target: T1, GAL4 activation domain fusion (ACT) to HAB1 (UniProt Q9CAJ0 23-511, limits assumed)
T1 construct: pACT-HAB1 fusion in yeast reporter strains; also called pACT-HAB1
T1 sequence (looked up): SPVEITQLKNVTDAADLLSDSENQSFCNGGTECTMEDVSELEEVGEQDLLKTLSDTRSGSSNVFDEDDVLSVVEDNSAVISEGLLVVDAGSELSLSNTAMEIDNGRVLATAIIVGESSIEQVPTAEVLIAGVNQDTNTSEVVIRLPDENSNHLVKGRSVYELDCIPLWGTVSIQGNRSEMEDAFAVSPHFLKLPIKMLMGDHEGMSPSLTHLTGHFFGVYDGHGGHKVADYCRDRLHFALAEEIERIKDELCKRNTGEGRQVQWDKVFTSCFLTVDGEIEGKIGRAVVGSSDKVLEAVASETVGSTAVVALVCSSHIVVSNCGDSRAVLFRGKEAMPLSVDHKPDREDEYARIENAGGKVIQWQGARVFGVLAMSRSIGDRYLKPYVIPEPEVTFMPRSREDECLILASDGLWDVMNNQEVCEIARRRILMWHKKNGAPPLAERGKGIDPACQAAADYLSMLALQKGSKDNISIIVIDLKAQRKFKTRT
Test: yeast two-hybrid, X-gal; lowest fludioxonil concentration giving signal
Known Threshold of a selection of binders
attributeMeasured: Threshold (µM)

>  <binder>
PYR1^K59R,E94A,Y120A (receptor, not shown: small tags and cut ends, pBD-PYR1 fusion in yeast) MPSELTPEERSELKNSIAEFHTYQLDPGSCSSLHAQRIHAPPELVWSIVRRFDKPQTYRHFIKSCSVEQNFEMRVGCTRDVIVISGLPANTSTARLDILDDERRVTGFSIIGGEHRLTNAKSVTTVHRFEKENRIWTVVLESYVVDMPEGNSEDDTRMFADTVVKLNLQKLATVAEAMARNSGDGSGSQVT

>  <numericReadout>
10

$$$$
>  <binder>
PYR1^K59R,L87F (receptor, pBD-PYR1 fusion in yeast) MPSELTPEERSELKNSIAEFHTYQLDPGSCSSLHAQRIHAPPELVWSIVRRFDKPQTYRHFIKSCSVEQNFEMRVGCTRDVIVISGFPANTSTERLDILDDERRVTGFSIIGGEHRLTNYKSVTTVHRFEKENRIWTVVLESYVVDMPEGNSEDDTRMFADTVVKLNLQKLATVAEAMARNSGDGSGSQVT

>  <numericReadout>
100

$$$$
>  <binder>
PYR1^K59R,F159V (receptor, not shown: small tags and cut ends, pBD-PYR1 fusion in yeast) MPSELTPEERSELKNSIAEFHTYQLDPGSCSSLHAQRIHAPPELVWSIVRRFDKPQTYRHFIKSCSVEQNFEMRVGCTRDVIVISGLPANTSTERLDILDDERRVTGFSIIGGEHRLTNYKSVTTVHRFEKENRIWTVVLESYVVDMPEGNSEDDTRMVADTVVKLNLQKLATVAEAMARNSGDGSGSQVT

>  <numericReadout>
100

$$$$
>  <binder>
PYR1^K59R,M158I (receptor, not shown: small tags and cut ends, pBD-PYR1 fusion in yeast) MPSELTPEERSELKNSIAEFHTYQLDPGSCSSLHAQRIHAPPELVWSIVRRFDKPQTYRHFIKSCSVEQNFEMRVGCTRDVIVISGLPANTSTERLDILDDERRVTGFSIIGGEHRLTNYKSVTTVHRFEKENRIWTVVLESYVVDMPEGNSEDDTRIFADTVVKLNLQKLATVAEAMARNSGDGSGSQVT

>  <numericReadout>
100

$$$$
>  <binder>
PYR1^K59R,M158V (receptor, not shown: small tags and cut ends, pBD-PYR1 fusion in yeast) MPSELTPEERSELKNSIAEFHTYQLDPGSCSSLHAQRIHAPPELVWSIVRRFDKPQTYRHFIKSCSVEQNFEMRVGCTRDVIVISGLPANTSTERLDILDDERRVTGFSIIGGEHRLTNYKSVTTVHRFEKENRIWTVVLESYVVDMPEGNSEDDTRVFADTVVKLNLQKLATVAEAMARNSGDGSGSQVT

>  <numericReadout>
100

$$$$
>  <binder>
PYR1^K59R,A160C (receptor, not shown: small tags and cut ends, pBD-PYR1 fusion in yeast) MPSELTPEERSELKNSIAEFHTYQLDPGSCSSLHAQRIHAPPELVWSIVRRFDKPQTYRHFIKSCSVEQNFEMRVGCTRDVIVISGLPANTSTERLDILDDERRVTGFSIIGGEHRLTNYKSVTTVHRFEKENRIWTVVLESYVVDMPEGNSEDDTRMFCDTVVKLNLQKLATVAEAMARNSGDGSGSQVT

>  <numericReadout>
100

$$$$
